The reported measurements were obtained from patent US10285989B2.

Molecular target: P-glycoprotein (P-gp, rat Mdr1a) (Rattus norvegicus, UniProt Q6PSM0)
Sequence (Q6PSM0 1-1272): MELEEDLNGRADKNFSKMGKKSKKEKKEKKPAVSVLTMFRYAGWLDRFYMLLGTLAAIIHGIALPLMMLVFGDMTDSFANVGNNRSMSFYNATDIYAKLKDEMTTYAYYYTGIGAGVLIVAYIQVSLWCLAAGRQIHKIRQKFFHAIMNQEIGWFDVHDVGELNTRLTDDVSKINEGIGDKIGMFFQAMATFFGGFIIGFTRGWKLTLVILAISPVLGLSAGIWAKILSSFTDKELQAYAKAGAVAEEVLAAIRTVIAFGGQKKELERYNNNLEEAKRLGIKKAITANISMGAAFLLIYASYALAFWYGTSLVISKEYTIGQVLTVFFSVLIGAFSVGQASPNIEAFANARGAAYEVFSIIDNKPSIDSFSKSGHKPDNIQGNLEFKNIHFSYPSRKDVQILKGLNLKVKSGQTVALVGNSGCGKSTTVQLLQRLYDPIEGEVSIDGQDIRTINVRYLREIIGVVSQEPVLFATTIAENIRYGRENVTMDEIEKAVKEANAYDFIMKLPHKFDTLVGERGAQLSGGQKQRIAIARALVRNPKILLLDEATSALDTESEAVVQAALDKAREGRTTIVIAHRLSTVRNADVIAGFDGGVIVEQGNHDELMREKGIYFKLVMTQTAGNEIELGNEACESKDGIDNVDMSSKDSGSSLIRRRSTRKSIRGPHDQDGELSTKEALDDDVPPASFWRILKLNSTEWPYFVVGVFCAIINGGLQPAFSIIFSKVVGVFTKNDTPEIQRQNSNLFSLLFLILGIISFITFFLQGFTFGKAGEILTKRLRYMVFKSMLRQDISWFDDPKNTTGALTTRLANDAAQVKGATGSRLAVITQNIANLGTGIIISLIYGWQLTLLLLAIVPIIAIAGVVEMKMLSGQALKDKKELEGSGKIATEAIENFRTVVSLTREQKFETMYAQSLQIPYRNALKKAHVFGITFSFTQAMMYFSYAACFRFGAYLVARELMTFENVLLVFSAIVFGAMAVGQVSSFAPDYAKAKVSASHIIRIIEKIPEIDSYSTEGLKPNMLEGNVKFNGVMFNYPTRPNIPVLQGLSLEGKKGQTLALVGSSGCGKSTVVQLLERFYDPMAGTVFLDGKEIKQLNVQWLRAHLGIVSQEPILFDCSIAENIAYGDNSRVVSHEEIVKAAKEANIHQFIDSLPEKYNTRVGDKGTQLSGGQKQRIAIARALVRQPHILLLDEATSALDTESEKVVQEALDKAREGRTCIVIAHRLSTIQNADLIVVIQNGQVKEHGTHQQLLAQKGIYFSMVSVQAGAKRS
Assay: P-gp transport, experimental BA/AB ratio, rat LLC-Mdr1a
Assay type: in vitro ADME
Conditions: LLC-PK1; rat LLC-Mdrla; 1 μM substrate concentration
readout.name: efflux ratio at 1 μM

Field: example entries. Status: answers known.
compound	efflux ratio at 1 μM
O=C(N[C@@H](c1ccc(OC(F)(F)F)cc1)C1CC1)c1cc(=O)[nH]c(N2CCCC2)n1 [Example 114]	4
CN(C)c1nc(C(=O)N[C@@H](c2ccc(C(F)F)cc2)C(C)(C)C)cc(=O)[nH]1 [Example 60]	4.3
CC[C@@H](NC(=O)c1cc(=O)[nH]c(N(C)C)n1)c1ccc(SC(F)(F)F)c(F)c1 [Example 98]	3
CN(C)c1nc(C(=O)N[C@@H](c2ccc(C(F)F)c(F)c2)C2CC2)cc(=O)[nH]1 [Example 66]	6.1
CN(C)c1nc(C(=O)N[C@@H](c2ccc(C(F)(F)F)c(F)c2)C2CC2)cc(=O)[nH]1 [Example 109]	2.5
CC(C)[C@@H](NC(=O)c1cc(=O)[nH]c(N(C)C)n1)c1ccc(SC(F)(F)F)cc1 [Example 30]	2.6
CC[C@@H](NC(=O)c1cc(=O)[nH]c(N(C)C)n1)c1ccc(C(F)(F)F)c(F)c1 [Example 106]	3.5
CN(C)c1nc(C(=O)N[C@@H](c2ccc(OC(F)(F)F)cc2)C(C)(C)C)cc(=O)[nH]1 [Example 100]	2.9
COc1cc(C(F)(F)F)ccc1C(C)(C)NC(=O)c1cc(=O)[nH]c(N(C)C)n1 [Example 79]	6.2
CC(C)[C@@H](NC(=O)c1cc(=O)[nH]c(N)n1)c1ccc(SC(F)(F)F)cc1 [Example 154]	24.7

1: CN(C)c1nc(C(=O)N[C@@H](c2ccc(C(F)F)cc2F)C(C)(C)C)cc(=O)[nH]1 [Example 73]
2: C[C@@H](NC(=O)c1cc(=O)[nH]c(N(C)C)n1)c1ccc(S(F)(F)(F)(F)F)cc1 [Example 89]
3: O=C(N[C@@H](c1ccc(C(F)(F)F)cc1)C1CC1)c1cc(=O)[nH]c(N2CC[C@H](F)C2)n1 [Example 167]
4: CN(C)c1nc(C(=O)N[C@@H](c2ccc(C(F)(F)F)cc2)C2CC2)cc(=O)[nH]1 [Example 108]
5: CN(C)c1nc(C(=O)NC(c2ccc(S(F)(F)(F)(F)F)cc2F)C(C)(C)C)cc(=O)[nH]1 (single isomer, unassigned) [Example 128]
## Task Please list these compounds in decreasing order of efflux ratio at 1 μM. In plain terms: list the labels in the order you were asked to.
## Result 3, 1, 5, 2, 4
(3: 27.4, 1: 6.9, 5: 4.8, 2: 2.9, 4: 1.9)

A: C[C@@H](NC(=O)c1cc(=O)[nH]c(N(C)C)n1)c1ccc(SC(F)(F)F)cc1 [Example 143]
B: O=C(NC1(c2ccc(C(F)(F)F)c(F)c2)CC1)c1cc(=O)[nH]c(N2CCCC2)n1 [Example 1]
## Task Hey, which is lower on measured efflux ratio at 1 μM, A or B ? Answer with the label corresponding to your selection.
## Result A
(A: 2.5, B: 7.2)

----------
Molecular target: human PDE2A1 (Homo sapiens (Human))
Sequence (O00408 other isoform, or with tags, fused parts or gaps): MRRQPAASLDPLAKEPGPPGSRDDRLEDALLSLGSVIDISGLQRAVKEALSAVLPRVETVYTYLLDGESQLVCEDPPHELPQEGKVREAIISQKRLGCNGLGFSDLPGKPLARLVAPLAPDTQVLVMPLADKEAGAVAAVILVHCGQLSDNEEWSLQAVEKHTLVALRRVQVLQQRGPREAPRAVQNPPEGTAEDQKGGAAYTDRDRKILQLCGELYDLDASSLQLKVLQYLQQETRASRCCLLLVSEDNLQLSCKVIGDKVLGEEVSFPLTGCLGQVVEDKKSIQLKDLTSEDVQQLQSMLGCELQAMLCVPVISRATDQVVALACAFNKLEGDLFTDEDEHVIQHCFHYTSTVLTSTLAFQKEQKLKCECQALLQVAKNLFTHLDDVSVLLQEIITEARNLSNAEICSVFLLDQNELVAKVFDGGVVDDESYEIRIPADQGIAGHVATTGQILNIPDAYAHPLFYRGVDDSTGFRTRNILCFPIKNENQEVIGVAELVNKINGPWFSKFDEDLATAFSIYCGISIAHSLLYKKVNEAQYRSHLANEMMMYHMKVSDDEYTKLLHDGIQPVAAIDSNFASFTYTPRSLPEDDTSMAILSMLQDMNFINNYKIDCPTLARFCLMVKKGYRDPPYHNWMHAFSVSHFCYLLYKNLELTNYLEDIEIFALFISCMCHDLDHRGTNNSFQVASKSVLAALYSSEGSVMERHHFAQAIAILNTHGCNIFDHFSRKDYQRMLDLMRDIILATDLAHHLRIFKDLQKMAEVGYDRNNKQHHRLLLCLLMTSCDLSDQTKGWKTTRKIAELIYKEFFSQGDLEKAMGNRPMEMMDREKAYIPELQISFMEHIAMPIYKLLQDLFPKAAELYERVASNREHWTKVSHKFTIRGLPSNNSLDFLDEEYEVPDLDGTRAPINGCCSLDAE
Assay: PDE2 IMAP FP inhibition assay, human PDE2A1 (selectivity panel format)
Type: biochemical
Conditions: Lab A; read-out: Human PDE2 Ki (nM) - Lab A
readout.name: Ki (nM)

Field: example entries. Status: answers known.
smiles.record	Ki [nM]
C[C@@H](NC(=O)c1cc(=O)[nH]c(N2CCC(F)(F)C2)n1)c1ccc(C(F)(F)F)cc1	9.2
C[C@@H](NC(=O)c1cc(=O)[nH]c(N2CC[C@@H](F)C2)n1)c1ccc(C(F)(F)F)cc1	18

A: C[C@@H](NC(=O)c1cc(=O)[nH]c(N2CC[C@H](F)C2)n1)c1ccc(C(F)(F)F)cc1
B: C[C@@H](NC(=O)c1cc(=O)[nH]c(NC2CC2)n1)c1ccc(C(F)(F)F)cc1
## Task Hey, which is lower on measured Ki, A or B ? Answer with the label corresponding to your selection.
## Result A
(A: 1.8 nM, B: 51 nM)

----------
Target: Rhesus PDE2A3 (Macaca mulatta)
Sequence (B3VTJ2 1-941): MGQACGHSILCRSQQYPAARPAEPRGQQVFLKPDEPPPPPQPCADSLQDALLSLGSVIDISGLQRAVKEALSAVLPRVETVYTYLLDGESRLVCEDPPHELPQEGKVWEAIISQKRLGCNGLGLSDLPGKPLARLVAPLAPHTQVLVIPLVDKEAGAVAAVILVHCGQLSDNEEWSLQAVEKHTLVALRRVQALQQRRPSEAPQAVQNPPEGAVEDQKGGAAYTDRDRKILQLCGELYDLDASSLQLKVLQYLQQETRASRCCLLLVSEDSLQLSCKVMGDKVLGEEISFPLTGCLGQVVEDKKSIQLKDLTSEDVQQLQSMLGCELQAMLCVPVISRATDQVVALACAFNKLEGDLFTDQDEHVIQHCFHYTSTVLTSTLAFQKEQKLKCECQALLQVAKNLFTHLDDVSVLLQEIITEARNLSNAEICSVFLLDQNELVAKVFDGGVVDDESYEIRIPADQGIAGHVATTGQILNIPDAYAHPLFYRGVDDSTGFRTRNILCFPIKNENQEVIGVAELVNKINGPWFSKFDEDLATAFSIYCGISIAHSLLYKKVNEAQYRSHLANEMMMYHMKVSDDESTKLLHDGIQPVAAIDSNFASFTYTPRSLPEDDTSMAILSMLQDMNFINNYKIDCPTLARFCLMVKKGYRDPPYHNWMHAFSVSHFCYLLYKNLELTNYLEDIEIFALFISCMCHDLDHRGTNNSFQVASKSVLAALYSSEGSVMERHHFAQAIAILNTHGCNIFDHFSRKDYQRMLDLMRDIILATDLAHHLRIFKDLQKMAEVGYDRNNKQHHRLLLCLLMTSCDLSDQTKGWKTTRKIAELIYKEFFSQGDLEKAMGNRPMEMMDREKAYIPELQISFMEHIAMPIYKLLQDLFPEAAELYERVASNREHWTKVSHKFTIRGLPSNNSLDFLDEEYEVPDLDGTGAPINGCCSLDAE
Test: PDE2 fluorescence polarization (IMAP FP) inhibition assay, rhesus PDE2A3
Type: biochemical, rhesus macaque
Details: Lab B; read-out: Rhesus PDE2 Ki (nM) - Lab B
readout.name: Ki (nM)

compound	Ki, nM
CN(C)c1nc(C(=O)N[C@@H](c2ccc(OC(F)(F)F)cc2)C2CC2)cc(=O)[nH]1 [Example 107]	2.2
CN(C)c1nc(C(=O)NC(C)(C)c2ccc(C(F)(F)F)cc2Cl)cc(=O)[nH]1 [Example 80]	0.65
CC(C)[C@@H](NC(=O)c1cc(=O)[nH]c(N(C)C)n1)c1ccc(C(F)(F)F)c(F)c1 [Example 112]	0.44
CC[C@@H](NC(=O)c1cc(=O)[nH]c(N(C)C)n1)c1ccc(OC(F)(F)F)cc1 [Example 105]	1.8

A: CN(C)c1nc(C(=O)N[C@@H](c2ccc(CC(F)(F)F)cc2)C(C)(C)C)cc(=O)[nH]1 [Example 31]
B: COc1cc(C(F)(F)F)ccc1C(C)(C)NC(=O)c1cc(=O)[nH]c(N(C)C)n1 [Example 79]
C: CN(C)c1nc(C(=O)N[C@@H](c2ccc(C3CC3)c(F)c2)C2CC2)cc(=O)[nH]1 [Example 56]
D: C[C@@H](NC(=O)c1cc(=O)[nH]c(N(C)C)n1)c1ccc(OC(F)(F)F)cc1F [Example 83]
E: CC[C@@H](NC(=O)c1cc(=O)[nH]c(N(C)C)n1)c1ccc(C(F)(F)F)c(F)c1 [Example 106]
## Task Please list these compounds in decreasing order of Ki. In plain terms: list the labels in the order you were asked to.
## Result B, D, E, C, A
(B: 6.4 nM, D: 2.3 nM, E: 1.4 nM, C: 0.71 nM, A: 0.42 nM)
